Cited source: ChEMBL document CHEMBL1122888

// values below are reported Lipoprotein level
- Tested on: Monkey
- test.protocol: Evaluated for serum lipoprotein LDL levels in the 14 day treated monkey at dose (10 mg/kg/day, ig) over a 2-week period
- Type: functional, Cercopithecidae
- Parameters: reference not given here

compound: C[C@H](C(O)CCC1CC1)C1CCC2C3CC=C4CC(O)CCC4(C)C3CCC21C (some centres undefined)
unit: %
Lipoprotein level: 23

compound: C[C@H](C(O)CCC(C)(C)F)C1CCC2C3CC=C4CC(O)CCC4(C)C3CCC21C (some centres undefined)
unit: %
Lipoprotein level: 25

compound: C[C@H](C(O)CCC(C)(C)Cl)C1CCC2C3CC=C4CC(O)CCC4(C)C3CCC21C (some centres undefined)
unit: %
Lipoprotein level: 22

compound: C[C@H](C(O)CCC(C)(C)C)C1CCC2C3CC=C4CC(O)CCC4(C)C3CCC21C (some centres undefined)
unit: %
Lipoprotein level: 25
